- System: S. pneumoniae
- ASSAY_COMMENT: Kill or inhibit growth/proliferation; morphology, biofilm and growth disruption (Tables 5, 6); note: test concentration or dose not given here
- Type: cell-based, Streptococcus pneumoniae
- Design: key: A: Peptide aggregates; B: Less hyphal formation; Clumps; Diffuse clumps and small polyps; F: Diffuse growth; H: Thin; I: Growth inhibition; Microcolony formation; Rippled; Small polyps; Thick; W: Halo formation on top, microlonies on bottom
MEASURED_PROPERTY: Organism, effect

Guide cases for Organism, effect, answers given:
PF-560: peptide having multiple activities (chain 1 FGNPFRGFTLAMEADFKKRK; chain 2 FGNPFRGFTLAMEADFKKRK; Peptide with targeting and/or antimicrobial activity) :: S. pneumoniae (R)
PF-444: peptide having multiple activities (chain 1 MAAKLWEEGKMVYASSASMTKRLKLAMSKV; chain 2 MAAKLWEEGKMVYASSASMTKRLKLAMSKV; Peptide with targeting and/or antimicrobial activity) :: S. pneumoniae (R)
KFQGEFTNIGQSYIVSASHMSTSLNTGK [PF-583] :: S. pneumoniae (D)
PF-627: peptide having multiple activities (INDLLSYFTLHEK; Peptide with targeting and/or antimicrobial activity) :: S. pneumoniae (I)

-- ask Quick one: give measured Organism, effect for PF-619: peptide having multiple activities (WSRVPGHSDTGWKVWHRW; Peptide with targeting and/or antimicrobial activity)
-- reply S. pneumoniae (C)

-- ask Return reported Organism, effect. Input substance: KNKKQTDILEKVKEILDKKKKTKSVGQKLY [PF-538]
-- reply S. pneumoniae (H)

-- ask Give the reported value of Organism, effect for this record: PF-624 (VFLLDSYCFVKINL; Peptide with targeting and/or antimicrobial activity)
-- reply S. pneumoniae (D)

###

- Tested on: M. luteus
- ASSAY_COMMENT: Kill or inhibit growth/proliferation; morphology, biofilm and growth disruption (Tables 5, 6); note: test concentration or dose not given here
- Type: cell-based, Micrococcus luteus
- Design: key: A: Peptide aggregates; B: Less hyphal formation; Clumps; Diffuse clumps and small polyps; F: Diffuse growth; H: Thin; I: Growth inhibition; Microcolony formation; Rippled; Small polyps; Thick; W: Halo formation on top, microlonies on bottom
MEASURED_PROPERTY: Organism, effect

PF-139: peptide having multiple activities (ALSKPAIQARTLCRRQDPP; Peptide with targeting and/or antimicrobial activity) :: M. luteus (C)
PF-274 (SIQEAEKIIKNDPFYIHDVADYDFMWFEPSKSLEEIKEFV; Peptide with targeting and/or antimicrobial activity) :: M. luteus (M)
PF-255: peptide having multiple activities (DHKINESQHNPFRSDSNKQNVDFF; Peptide with targeting and/or antimicrobial activity) :: M. luteus (M)
PF-020: peptide having multiple activities (chain 1 MKIILLLFLIFGFIVVVTLKSEHQLTLFSI; chain 2 MKIILLLFLIFGFIVVVTLKSEHQLTLFSI; Peptide with targeting and/or antimicrobial activity) :: M. luteus (C)
PF-578: peptide having multiple activities (chain 1 QKANLRIGFTYTSDSNVCNLTFALLGSK; chain 2 QKANLRIGFTYTSDSNVCNLTFALLGSK; Peptide with targeting and/or antimicrobial activity) :: M. luteus (C)
PF-057: peptide having multiple activities (chain 1 TMIVISIPRFEEYMKARHKKWM; chain 2 TMIVISIPRFEEYMKARHKKWM; Peptide with targeting and/or antimicrobial activity) :: M. luteus (C)
PF-052: peptide having multiple activities (chain 1 QELINEAVNLLVKSK; chain 2 QELINEAVNLLVKSK; Peptide with targeting and/or antimicrobial activity) :: M. luteus (A)

Let's switch to this substance now.
-- ask Give the measured Organism, effect for PF-556: peptide having multiple activities (chain 1 SLQIRMNTLTAAKASIEAA; chain 2 SLQIRMNTLTAAKASIEAA; Peptide with targeting and/or antimicrobial activity)
-- reply M. luteus (A)

Sourced from patent US20110039762A1
